# literature pull: Prostaglandin G/H synthase 2 (Ovis aries, UniProt P79208) IC50
Respond numerically; units are µM and should not be typed.

State measured IC50 of the compound N=C(Nc1ccc(S(N)(=O)=O)cc1)c1nnc(-c2ccccc2)s1 with Prostaglandin G/H synthase 2 (Ovis aries, UniProt P79208).
0.0048

Enter recorded IC50 with Prostaglandin G/H synthase 2 (Ovis aries, UniProt P79208) for CS(=O)(=O)c1ccc(-c2csc(=S)n2-c2cccc(Cl)c2)cc1 here.
3.34

Give IC50 only, for C=CC1(C)CC=C2C(CCC3C(C)(CCC=CC(=O)O)CCCC23C)C1 (centres unmarked) , using Prostaglandin G/H synthase 2 (Ovis aries, UniProt P79208) data.
63.8
